The origin of these recorded values is patent US9113629B2.

System: Key Broadleaf Weed and Crop Species
Test: Post-emergent Test II herbicidal activity (Table 5)
Type: in vivo
Details: post-emergence, 336 h; CHEAL: lambsquarters (Chenopodium album); application rate 70 g ai/ha; 14 days after application; read-out: Visual Growth Reduction (%) 14 Days After Application, CHEAL
MEASURED ATTRIBUTE: pest or weed control at 70 g/ha

// lookup pest or weed control at 70 g/ha for Nc1c(F)c(-c2ccc(Br)c(F)c2)nc(C(=O)O)c1Cl
95 to 100%

Same for COc1c(N)nc(-c2ccc(Br)c(F)c2F)nc1C(=O)O
95 to 100%

Same for COC(=O)c1nc(-c2ccc(OC(F)F)c(F)c2F)c(F)c(N)c1Cl
0 to 29%

Same for COC(=O)c1nc(-c2ccc(I)c(F)c2F)cc(N)c1Cl
95 to 100%

Same for C#Cc1ccc(-c2nc(N)c(OC)c(C(=O)O)n2)c(F)c1F
0 to 29%

====

Tested on: VIOSS: wild pansy (Viola tricolor), field violet (Viola arvensis)
Assay: Post-emergent Test III, herbicidal activity in wheat and barley
Format: in vivo
Settings: Viola tricolor, post-emergence, 504 h; 70 g ai/ha; 21 days after application; read-out: Visual Gorowth Reduction (%) 21 days After Application VIOSS
MEASURED ATTRIBUTE: pest or weed control at 70 g/ha

COc1c(N)nc(-c2ccc(I)cc2F)nc1C(=O)O	45 to 59%

Pending molecule:
// lookup pest or weed control at 70 g/ha for COc1c(N)nc(-c2ccc(I)c(F)c2F)nc1C(=O)O
95 to 100%

====

Tested on: HORSS: barley, including spring and winter (Hordeum vulgare)
Assay: Post-emergent Test III, herbicidal activity in wheat and barley
Type: in vivo
Conditions: Table 9; dose for 20 percent growth reduction, probit analysis; 21 d
MEASURED ATTRIBUTE: GR20 HORSS (g ai/ha)
Give your result in g ai/ha as a bare value.

Sample records with GR20 HORSS:
C#Cc1ccc(-c2nc(N)c(OC)c(C(=O)O)n2)c(F)c1F [Compound 154]	81
Nc1c(F)c(-c2cc(F)c(Br)cc2F)nc(C(=O)O)c1Cl [Compound 42]	1
Nc1cc(-c2ccc(Br)cc2)nc(C(=O)O)c1Cl [Compound 168]	1
COc1c(N)nc(-c2ccc(C(F)(F)F)c(F)c2F)nc1C(=O)O [Compound 76]	6

Pending compound:
Give HORSS: barley, including spring and winter (Hordeum vulgare) GR20 HORSS for Cc1c(-c2ccc(C(F)(F)F)c(F)c2)nc(C(=O)O)c(Cl)c1N [Compound 161]
1

====

System: Key Broadleaf Weed and Crop Species
Experiment: Post-emergent Test II herbicidal activity (Table 5)
Type: in vivo
Conditions: post-emergence, 336 h; BRSNN: oilseed-rape, canola (Brassica napus); application rate 70 g ai/ha; 14 days after application; read-out: Visual Growth Reduction (%) 14 Days After Application, BRSNN
Measured pest or weed control at 70 g/ha, listed per entry for reference.

Sample records with pest or weed control at 70 g/ha:
COC(=O)c1nc(-c2ccccc2)nc(N)c1OC	0 to 29%
COC(=O)c1nc(-c2cccc(F)c2F)c(F)c(N)c1Cl	85 to 94%
COC(=O)c1nc(-c2ccc(F)cc2)c(F)c(N)c1Cl	85 to 94%
Nc1c(F)c(-c2ccc([N+](=O)[O-])cc2)nc(C(=O)O)c1Cl	30 to 44%

// lookup pest or weed control at 70 g/ha for COC(=O)c1nc(-c2ccc(I)cc2)c(F)c(N)c1Cl
95 to 100%
